TARGET OR TEST SYSTEM: T1, HIV-1 YU-2 gp120 (wild-type gp120YU-2, monomeric) (HIV-1 (YU-2), UniProt P35961 32-498)
T1 construct: domain: gp120; only gp120 stood in the assay
TEST SUMMARY: SPR competition: fixed 250 nM HIV-1 YU-2 gp120 with increasing peptide passed over immobilized mAb 17b; inhibition of gp120 binding to 17b
Positions of bridges follow the written chain, without caps; N, C: chain ends. Non-standard residues stand in square brackets, D forms with d. No end group written: not given here. Pro(cis-4-Trz(4-CH2CH2Ph)) = O=C(O)[C@@H]1C[C@H](n2cc(CCc3ccccc3)nn2)CN1
OUTCOME MEASURE: IC50 (nM)
Report only the number, with the unit nM understood.

Entry DNI[Pro(cis-4-Trz(4-CH2CH2Ph))]WK-NH2 (lactam 1-6, Cyclic hexapeptide triazole; also called minimized hexapeptide AAR029; macrocycle AAR029) [AAR029] : reported IC50 = ?
95.5
